# Assay summary: Biodistribution of ^111In-labeled peptides in B16-F1 melanoma-bearing mice
# Assay type: in vivo, mouse (B6D2F1)
# Protocol conditions: female, B6D2F1, mouse, pancreas, iv, total radioactivity; ^111In-labeled peptide, 185 kBq i.v., 4 h; mean ± SEM of three experiments, n = 5 animals each; read-out: Pancreas uptake
Non-standard residues stand in square brackets, D forms with d. Residues, ends and D or L forms follow the SMILES beside them. *: point of attachment. DOTA = O=C(O)CN1CCN(CC(=O)O)CCN(CC(=O)*)CCN(CC(=O)O)CC1; pY = N[C@@H](Cc1ccc(OP(=O)(O)O)cc1)C(=O)O; Nle = CCCC[C@H](N)C(=O)O
Measured metric: tissue uptake at 4 h (%ID/g)
A number alone suffices; assume %ID/g.

Which tissue uptake at 4 h reading was recorded for the molecule CCCC[C@H](NC(=O)[C@H](Cc1ccc(OP(=O)(O)O)cc1)NC(=O)CNC(=O)CN1CCN(CC(=O)O)CCN(CC(=O)O)CCN(CC(=O)O)CC1)C(=O)N[C@@H](CC(=O)O)C(=O)N[C@@H](Cc1c[nH]cn1)C(=O)N[C@H](Cc1ccccc1)C(=O)N[C@@H](CCCNC(=N)N)C(=O)N[C@@H](Cc1c[nH]c2ccccc12)C(N)=O [DOTA-Phospho-MSH2-9] ({DOTA}-G[pY][Nle]DH[dF]RW-NH2) ? 0.05

Entry to check: CCCC[C@H](NC(C)=O)C(=O)N[C@@H](CC(=O)O)C(=O)N[C@@H](Cc1c[nH]cn1)C(=O)N[C@H](Cc1ccccc1)C(=O)N[C@@H](CCCNC(=N)N)C(=O)N[C@@H](Cc1c[nH]c2ccccc12)C(=O)NCC(=O)N[C@@H](CCCCNC(=O)CN1CCN(CC(=O)O)CCN(CC(=O)O)CCN(CC(=O)O)CC1)C(N)=O [DOTA-NAP-amide, reference compound] 0.04

Entry to check: CCCC[C@H](NC(C)=O)C(=O)N[C@@H](CC(=O)O)C(=O)N[C@@H](Cc1c[nH]cn1)C(=O)N[C@H](Cc1ccccc1)C(=O)N[C@@H](CCCNC(=N)N)C(=O)N[C@@H](Cc1c[nH]c2ccccc12)C(=O)NCC(=O)N[C@@H](CCCCNC(=O)CN1CCN(CC(=O)O)CCN(CC(=O)O)CCN(CC(=O)O)CC1)C(=O)N[C@H](CC(=O)O)C(=O)N[C@H](CC(=O)O)C(=O)O [DOTA-NAP-D-Asp-D-Asp] (Ac-[Nle]DH[dF]RWGK(DOTA)[dD][dD]-OH) 0.03

All figures here come from paper PMC5405074.
